Values compiled from paper PMC2999882.

For α3β4 nAChR (Homo sapiens, UniProt P30926+P32297), measured α3β4 Imax is reported for the entries below.

{"columns": ["COMPOUND", "RESULT QUALIFIER", "α3β4 Imax"],
 "data": [
  ["C[N+](C)(C)C [TMA, tetramethyl-ammonium, reference compound]", "=", 0.55],
  ["COc1ccc(/C=C2/CN3CCC2CC3)cc1.Cl [MeOBQNE]", "<", 0.01],
  ["CC[N+](C)(C)CC [dEdMA, diethyldimethylammonium]", "=", 0.06],
  ["C[N+]12CCC(CC1)CC2.[I-] [MQN]", "=", 0.025],
  ["CC[N+](C)(C)C [ETMA, reference compound]", "=", 0.78],
  ["C1CN2CCC1CC2 [QN, quinuclidine]", "=", 0.64],
  ["COc1ccc(/C=C2\\CN3CCC2CC3)cc1.Cl [MeOBQNZ]", "<", 0.01],
  ["C(=C1\\CN2CCC1CC2)/c1ccccc1.Cl [BQNE]", "<", 0.01],
  ["C(=C1/CN2CCC1CC2)/c1ccccc1.Cl [BQNZ]", "=", 0.10]
]}

----------
SYSTEM NAME: α4β2 nAChR (Homo sapiens, UniProt P17787+P43681)
Sequence (P43681 29-627 limits assumed): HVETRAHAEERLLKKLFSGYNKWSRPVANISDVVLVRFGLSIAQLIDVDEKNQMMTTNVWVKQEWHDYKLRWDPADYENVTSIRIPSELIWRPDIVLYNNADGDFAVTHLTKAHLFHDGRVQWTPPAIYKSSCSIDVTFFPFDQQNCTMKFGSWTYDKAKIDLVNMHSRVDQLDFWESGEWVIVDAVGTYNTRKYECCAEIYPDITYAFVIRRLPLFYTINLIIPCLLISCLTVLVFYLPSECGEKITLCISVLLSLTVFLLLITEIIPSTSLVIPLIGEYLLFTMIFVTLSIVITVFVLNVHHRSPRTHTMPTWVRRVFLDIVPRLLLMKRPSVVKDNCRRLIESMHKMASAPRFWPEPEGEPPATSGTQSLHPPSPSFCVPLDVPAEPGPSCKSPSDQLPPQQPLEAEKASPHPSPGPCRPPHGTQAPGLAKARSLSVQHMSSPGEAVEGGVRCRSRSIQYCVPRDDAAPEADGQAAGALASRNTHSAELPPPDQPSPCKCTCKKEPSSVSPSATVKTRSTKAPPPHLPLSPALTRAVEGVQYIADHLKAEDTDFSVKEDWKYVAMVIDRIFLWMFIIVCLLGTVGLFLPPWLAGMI
Sequence (P17787 26-502): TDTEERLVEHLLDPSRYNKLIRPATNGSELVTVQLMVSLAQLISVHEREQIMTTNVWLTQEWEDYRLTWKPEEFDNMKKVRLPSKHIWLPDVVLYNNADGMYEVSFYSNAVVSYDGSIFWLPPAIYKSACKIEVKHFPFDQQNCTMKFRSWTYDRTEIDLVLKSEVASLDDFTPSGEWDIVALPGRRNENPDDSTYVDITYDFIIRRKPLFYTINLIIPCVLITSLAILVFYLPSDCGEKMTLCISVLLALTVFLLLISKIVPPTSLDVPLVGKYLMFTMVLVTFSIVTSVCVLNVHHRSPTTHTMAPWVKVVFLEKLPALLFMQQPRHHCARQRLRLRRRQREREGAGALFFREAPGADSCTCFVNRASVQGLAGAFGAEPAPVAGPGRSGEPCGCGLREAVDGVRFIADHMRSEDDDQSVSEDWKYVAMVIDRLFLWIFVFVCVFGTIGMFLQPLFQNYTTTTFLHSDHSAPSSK
Type: cell-based

{"columns": ["MOLECULE", "RESULT UNIT", "α4β2 Inhibition"],
 "data": [
  ["CC[N+](C)(C)CC", "%", 52],
  ["CC[N+](C)(C)C [ETMA, reference compound]", "%", 40],
  ["C1CN2CCC1CC2", "%", 74],
  ["C(=C1/CN2CCC1CC2)/c1ccccc1.Cl", "%", 74]
]}
